Where do these numbers come from? They come from PubChem BioAssay AID1490.

MEASURED TARGET: 4'-phosphopantetheinyl transferase ffp (Bacillus subtilis) (UniProt Q9F4F7)
ASSAY INFO: qHTS Assay for Inhibitors of Bacillus subtilis Sfp phosphopantetheinyl transferase (PPTase)
SETTINGS: Biochemical Sfp PPTase activity
The campaign covered roughly 310,000 compounds. About 11,000 (3.5%) were called active. Inconclusive results (about 4%) are left out. What follows is part of a selection rich in actives, with near analogues and random picks from the rest.
Known largest response in the series, negative = inhibition of a selection of compounds
Write the value in % as a bare number.

Consider the reported largest response in the series, negative = inhibition for these compounds:
CN(C)S(=O)(=O)c1ccc(C(=O)NCCN=C2NS(=O)(=O)c3ccccc32)cc1    2.12
O=C(Cc1ccc(Cl)cc1)NC(=S)Nc1ccccc1O    12.4
COCCNC(=S)N(CCc1c(C)[nH]c2ccc(C)cc12)Cc1cccnc1    5.81

-- ask What measured largest response in the series, negative = inhibition goes with O=C(c1cccc(C(=O)N2CCN(c3ccc(F)cc3)CC2)c1)N1CCN(c2ccc(F)cc2)CC1 ?
-- reply -15.2

###

MEASURED TARGET: 4'-phosphopantetheinyl transferase ffp (Bacillus subtilis) (UniProt Q9F4F7)
ASSAY INFO: qHTS Assay for Inhibitors of Bacillus subtilis Sfp phosphopantetheinyl transferase (PPTase); also: potency is read from the fitted curve at half-maximal effect
SETTINGS: Biochemical Sfp PPTase activity
Out of some 310,000 compounds screened, about 11,000 (3.5%) were called active. Inconclusive results (about 4%) are left out. For the sample, actives were picked, then their nearest neighbours and some compounds at random.
MEASURE NAME: Potency

Consider the reported Potency for these molecules:
CNC(=O)C(=O)N/N=C/c1ccccn1    79.4 µM (active)
CCN(CC)c1ccc2oc(=O)c(C)nc2c1    14.1 µM (active)
CSc1n[nH]c(=S)n1N    44.7 µM (active)

-- ask What measured Potency goes with O=C(N/N=C/c1ccccn1)c1cccnc1 ?
-- reply 2 µM (active)

-- ask Proceed to CCOC(=O)N1CCN(C(c2cccnc2)c2ccc3cccnc3c2O)CC1 (stereo not given)
-- reply 20 µM (active)

###

Known largest response in the series, negative = inhibition of a selection of compounds
MEASURED TARGET: 4'-phosphopantetheinyl transferase ffp (Bacillus subtilis)
ASSAY INFO: qHTS Assay for Inhibitors of Bacillus subtilis Sfp phosphopantetheinyl transferase (PPTase);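 as to largest response in the series, negative = inhibition: 0% = enzyme reaction without inhibitor and -100% = no enzyme wells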
SETTINGS: Biochemical Sfp PPTase activity
The campaign covered roughly 310,000 compounds. About 11,000 (3.5%) were called active. Another 4% or so got no clear call; they are omitted. Only a selection was taken, and actives are over-represented in it overall.
Write the value in % as a bare number.

Consider the reported largest response in the series, negative = inhibition for these compounds:
Cc1cc(C)nc(N/N=C/c2ccncc2)n1    -9.4
COc1ccccc1NC(=O)CSc1nnc(-c2ccoc2C)n1CCc1ccccc1    -0.913
CCOC(=O)Cc1csc(NC(=O)CSc2nnc(-c3cccnc3)n2Cc2ccco2)n1    -19.3
Cc1cc(C(F)(F)F)nc(SCC(=O)Nc2nccs2)n1    -13.1
Cc1cc(C(F)(F)F)nn1-c1nc(-c2ccco2)cc(C(F)(F)F)n1    11.9
COc1ccc(N2CCN(Cc3nnc(-c4ccccc4)o3)CC2)cc1    2.63
CCn1c(SCC(=O)c2ccc(Cl)s2)nnc1-c1cccs1    -7.42
COc1ccc(NS(=O)(=O)c2cccc3nsnc23)cc1Cl    13.3
CCN(CC)C(=O)CN(c1cccc([N+](=O)[O-])c1)S(=O)(=O)c1ccccc1    19.8
COc1ccc(CCNC(=O)c2nnc(CS(=O)(=O)c3ccccc3)o2)cc1OC    9.29

From here, focus on the item given below.
-- ask What measured largest response in the series, negative = inhibition goes with CCOC(=O)C1=C(C(=O)OCC)C(C(=O)OCC)N(S(=O)(=O)C(F)(F)F)c2ccccc21 (stereo not drawn) ?
-- reply 6.6

###

MEASURED TARGET: 4'-phosphopantetheinyl transferase ffp (Bacillus subtilis)
ASSAY INFO: qHTS Assay for Inhibitors of Bacillus subtilis Sfp phosphopantetheinyl transferase (PPTase); also: potency is read from the fitted curve at half-maximal effect;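 also: the enzyme is Sfp with the accession as filed and its product quenches rhodamine fluorescence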
SETTINGS: Biochemical Sfp PPTase activity
The campaign covered roughly 310,000 compounds. About 11,000 (3.5%) were called active. Roughly 4% stayed inconclusive and do not appear here. The list comes from a sample in which actives are over-represented; it also holds close analogues and randomly drawn compounds.
MEASURE NAME: Potency

NS(=O)(=O)c1cccc(NC(=O)CSc2nc3ccccc3n2-c2ccccc2)c1    79.4 µM (active)
Cc1ccc(C(=O)O)cc1NC(=O)c1ccc(Cn2nc(C)c(Cl)c2C)o1    56.2 µM (active)
c1ccc(CSc2nnc(-c3ccco3)c(-c3ccco3)n2)cc1    35.5 µM (active)
CCOC(=O)c1c(NC(=O)C2(C)Cc3ccccc3C(=O)O2)sc2c1CCCC2 (configuration not stated)    35.5 µM (active)
CCN(CC(=O)Nc1cccc(S(N)(=O)=O)c1)Cc1nc2ccccc2c(=O)[nH]1    50.1 µM (active)

-- ask What measured Potency goes with CCOC(=O)C1Sc2[nH]c(=O)sc2C(c2ccc(Cl)cc2)C1C(=O)OCC (configuration not stated) ?
-- reply 22.4 µM (active)

-- ask Proceed to O=C(CN1CCN(c2ccc(O)cc2)CC1)Nc1cc(S(=O)(=O)N2CCOCC2)ccc1Cl
-- reply 79.4 µM (active)

###

MEASURED TARGET: 4'-phosphopantetheinyl transferase ffp (Bacillus subtilis) (UniProt Q9F4F7)
ASSAY INFO: qHTS Assay for Inhibitors of Bacillus subtilis Sfp phosphopantetheinyl transferase (PPTase);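 also: the enzyme is Sfp with the accession as filed and its product quenches rhodamine fluorescence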;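 as to largest response in the series, negative = inhibition: 0% = enzyme reaction without inhibitor and -100% = no enzyme wells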
SETTINGS: Biochemical Sfp PPTase activity
Screen size: about 310,000 compounds; about 11,000 (3.5%) were called active. Roughly 4% stayed inconclusive and do not appear here. The sample as a whole holds a higher share of actives than the screen did.
Known largest response in the series, negative = inhibition of a selection of compounds
Write the value in % as a bare number.

CCOc1cc(-c2noc(CCCC(=O)NC3CCCCC3)n2)ccc1OC    13
COc1ccc(OC)c(CCNC(=O)CCn2ccc3cc(S(=O)(=O)N4CCCC4)ccc32)c1    4.91
COc1cccc(-c2coc3cc4oc(=O)c(CC(=O)O)c(C)c4cc23)c1    3.72
CCOC(=O)c1c(-c2ccccc2)csc1NC(=S)NC(=O)c1ccccc1    -3.92

From here, focus on the item given below.
-- ask What measured largest response in the series, negative = inhibition goes with COc1ccc2oc(=N)c(C(=O)Nc3ccc(Br)cc3)cc2c1 ?
-- reply 17.1

###

Known largest response in the series, negative = inhibition of a selection of compounds
MEASURED TARGET: 4'-phosphopantetheinyl transferase ffp (Bacillus subtilis) (UniProt Q9F4F7)
ASSAY INFO: qHTS Assay for Inhibitors of Bacillus subtilis Sfp phosphopantetheinyl transferase (PPTase);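 also: the enzyme is Sfp with the accession as filed and its product quenches rhodamine fluorescence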;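 as to largest response in the series, negative = inhibition: 0% = enzyme reaction without inhibitor and -100% = no enzyme wells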
SETTINGS: Biochemical Sfp PPTase activity
Among all 310,000 compounds or so, about 11,000 (3.5%) were called active. Inconclusive results (about 4%) are left out. For the sample, actives were picked, then their nearest neighbours and some compounds at random.
Write the value in % as a bare number.

O=C(Nc1cccc(-c2cccc(Cl)c2)c1)C1CCN(C2CCC2)CC1    -24.2

-- ask What measured largest response in the series, negative = inhibition goes with O=C(Nc1ccccc1N1CCN(C(=O)c2ccccc2)CC1)c1ccco1 ?
-- reply 14.1

-- ask Proceed to COc1cc2c(cc1OC)CN(CC(=O)Nc1ccc(F)cc1)CC2
-- reply 2.33

-- ask Proceed to CC(=O)OCC1OC(C#CCCCc2ccccc2)C=CC1OC(C)=O (stereo not given)
-- reply 17.9

-- ask Proceed to CCC(C)C(NC(=O)C1CCC(=O)N1C(=O)OCc1ccccc1)C(=O)NC(C(=O)N1CCCC1C(N)=O)C(C)CC (stereo not given)
-- reply 18.8

###

MEASURED TARGET: 4'-phosphopantetheinyl transferase ffp (Bacillus subtilis)
ASSAY INFO: qHTS Assay for Inhibitors of Bacillus subtilis Sfp phosphopantetheinyl transferase (PPTase);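 also: the enzyme is Sfp with the accession as filed and its product quenches rhodamine fluorescence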;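 as to largest response in the series, negative = inhibition: 0% = enzyme reaction without inhibitor and -100% = no enzyme wells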
SETTINGS: Biochemical Sfp PPTase activity
Among all 310,000 compounds or so, about 11,000 (3.5%) were called active. Roughly 4% stayed inconclusive and do not appear here. Shown is part of a subset that was picked to be rich in actives.
MEASURE NAME: largest response in the series, negative = inhibition (%)
Write the value in % as a bare number.

Consider the reported largest response in the series, negative = inhibition for these compounds:
Cc1cccc(COc2ccccc2/C=N/Nc2ccc([N+](=O)[O-])cc2)c1    24.5
Cc1ccc(C2Nc3cccc4cccc(c34)N2)cc1    -26.1
Cc1ccc(C(=O)CSc2ccccc2C(=O)O)cc1    13.7
CCOc1cc(-c2cc(-c3ccc(NC(C)=O)cc3)nc(N)c2C#N)ccc1O    10.7
CC(=O)Nc1c2c(nn1-c1cccc(C)c1)CSC2    15.2
CCOC(=O)c1c(NC(=O)CSc2nnc(C)c(=O)[nH]2)sc2c1CCC2    12
Cc1cc(N(C)C)nc(Cl)n1    -4.8
CC(=O)Nc1ccc(S(=O)(=O)N2CCC(NC(=O)c3ccccc3)CC2)cc1    22.8
Cc1cc(C)n(-c2ccc(NC(=O)C3CCCCN3C(=O)c3cccs3)cc2)n1 (stereo unspecified)    4.09
Cc1ccc(OCCCC(=O)Nc2ccc(S(=O)(=O)Nc3cc(C)nc(C)n3)cc2)cc1    5.46

From here, focus on the item given below.
-- ask Please provide the recorded largest response in the series, negative = inhibition for O=C1CSC(=S)N1c1ccc(O)cc1 , tested on 4'-phosphopantetheinyl transferase ffp (Bacillus subtilis).
-- reply -9.51
